Study system: T1, BMP6 (UniProt P22004 375-513)
T1 sequence (looked up): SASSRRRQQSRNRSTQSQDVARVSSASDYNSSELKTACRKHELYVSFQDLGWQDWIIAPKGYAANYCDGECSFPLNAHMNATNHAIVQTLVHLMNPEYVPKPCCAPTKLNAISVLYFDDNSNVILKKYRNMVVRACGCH
Method description: cell-based or functional assay
Parameter measured: IC50 of inhibition of 2.5 nM BMP6 signalling, luciferase reporter, BRITER cells

Examples with answers:
ΔC1Q ERFE (domain or fragment, human, UniProt Q4G0M1 44-207, looked up, erythroferrone (ERFE), human, construct from residue 44 with a stop codon introduced at C208, removing the entire C1Q domain; source: Expi293, transfected, purified; not shown: FLAG, N-terminal, kept) PPPGNELPRGPGESRAGPAARPPEPTAERAHSVDPRDAWMLFVRQSDKGVNGKKRSRGKAKKLKFGLPGPPGPPGPQGPPGPIIPPEALLKEFQLLLKGAVRQRERAEPEPCTCGPAGPVAASLAPVSATAGEDDDDVVGDVLALLAAPLAPGPRAPRVEAAFL : 7.8 nM
Cys∗ ERFE (natural protein, human, UniProt Q4G0M1 44-354, looked up, erythroferrone (ERFE), human, residues 44-354, Cys155, 157 and 208 mutated to serines; source: some mutants αFlag resin first; not shown: FLAG, N-terminal, kept) PPPGNELPRGPGESRAGPAARPPEPTAERAHSVDPRDAWMLFVRQSDKGVNGKKRSRGKAKKLKFGLPGPPGPPGPQGPPGPIIPPEALLKEFQLLLKGAVRQRERAEPEPSTSGPAGPVAASLAPVSATAGEDDDDVVGDVLALLAAPLAPGPRAPRVEAAFLSRLRRDALVERRALHELGVYYLPDAEGAFRRGPGLNLTSGQYRAPVAGFYALAATLHVALGEPPRRGPPRPRDHLRLLICIQSRCQRNASLEAIMGLESSSELFTISVNGVLYLQMGQWTSVFLDNASGCSLTVRSGSHFSAVLLGV : 8.7 nM
Cys∗ΔC1Q ERFE (domain or fragment, human, UniProt Q4G0M1 44-207, looked up, erythroferrone (ERFE), human, stop codon at C208, Cys155 and Cys157 mutated to serines (C208 is not in the truncated chain); source: Expi293, transfected, purified; not shown: FLAG, N-terminal, kept) PPPGNELPRGPGESRAGPAARPPEPTAERAHSVDPRDAWMLFVRQSDKGVNGKKRSRGKAKKLKFGLPGPPGPPGPQGPPGPIIPPEALLKEFQLLLKGAVRQRERAEPEPSTSGPAGPVAASLAPVSATAGEDDDDVVGDVLALLAAPLAPGPRAPRVEAAFL : 97 nM
CLR∗ΔC1Q ERFE (domain or fragment) PPPGNELPRGPGESRAGPAARPPEPTAERAHSVDPRDAWMLFVRQSDKGVNGKKRSRGKAKKLKFGLPGPPGPSSSQGPPGPIIPPEALLKEFQLLLKGAVRQRERAEPEPCTCGPAGPVAASLAPVSATAGEDDDDVVGDVLALLAAPLAPGPRAPRVEAAFL : 27 nM

Lab note: next binder to report on.
Enquiry: Identify measured IC50 of inhibition of 2.5 nM BMP6 signalling, luciferase reporter, BRITER cells associated with CLR∗Cys∗ΔC1Q ERFE (domain or fragment) PPPGNELPRGPGESRAGPAARPPEPTAERAHSVDPRDAWMLFVRQSDKGVNGKKRSRGKAKKLKFGLPGPPGPSSSQGPPGPIIPPEALLKEFQLLLKGAVRQRERAEPEPSTSGPAGPVAASLAPVSATAGEDDDDVVGDVLALLAAPLAPGPRAPRVEAAFL
Return: 290 nM
